Data origin, for the record: paper PMC12344719

# CC50 at 72 h per record follows
- Procedure summary: in vitro
- Condition set: African green monkey (Cercopithecus aethiops)

Chemical structure: COc1cccc(SCC(=O)N(Cc2ccccn2)C2CCCCC2)c1
CC50 at 72 h, µM: 16.1
--
Chemical structure: CCOc1ccc2nc(C(=O)CCC(=O)OC(CCl)CCl)sc2c1
CC50 at 72 h, µM: 45.5
--
Chemical structure: Cc1cccc(C)c1NC(=O)CCCSCc1cccc(S(=O)(=O)N(C)C)c1
CC50 at 72 h, µM: 15.7
--
Chemical structure: CC(=O)c1[nH]c(C)c(C(=O)N(C)CCCOc2cccc(Cl)c2)c1C
CC50 at 72 h, µM: 27.6
--
Chemical structure: CCS(=O)(=O)N(C)c1ccc2sc(C(=O)NCCC3=CCCCC3)cc2c1
CC50 at 72 h, µM: 5.07
